Let's look at some compounds and their measured pIC50.
molecular target: hQC (Homo sapiens, UniProt Q16769); experiment: Fluorometric (fluorescent) assay of hQC inhibition, IC50; format: biochemical; settings: read-out: IC50
Sequence (Q16769 29-361): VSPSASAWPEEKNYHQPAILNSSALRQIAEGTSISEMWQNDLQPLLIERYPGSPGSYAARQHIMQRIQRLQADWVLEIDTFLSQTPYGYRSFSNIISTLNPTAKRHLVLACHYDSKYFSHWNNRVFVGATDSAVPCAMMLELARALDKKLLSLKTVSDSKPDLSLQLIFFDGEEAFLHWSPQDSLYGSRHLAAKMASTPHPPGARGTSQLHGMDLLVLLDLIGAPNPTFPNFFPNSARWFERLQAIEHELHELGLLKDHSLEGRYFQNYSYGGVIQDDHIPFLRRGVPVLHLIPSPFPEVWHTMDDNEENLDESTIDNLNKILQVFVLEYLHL
pIC50: −log10 of the molar value.
Experimental Endpoint: pIC50

>>> df
                                    compound  data_value
 0  c1cn(CCCNC(c2ccc3[nH]ccc3c2)c2nnnn2C2CCCC2)cn1 (stereo not drawn)        5.51
 1  c1nc2cc(NC(c3ccc4nsnc4c3)c3nnnn3CC3CCCO3)ccc2[nH]1 (stereo not drawn)        5.31
 2  COC(=O)Cn1nnnc1C(NCCCn1ccnc1)c1ccc2cccc(O)c2n1 (stereo not drawn)        5.31
 3  Cc1ccc2c(C(Nc3ccc4[nH]cnc4c3)c3nnnn3CC3CCCO3)c[nH]c2c1 (stereo not drawn)        5.17
 4  CN(C)c1ccc(C(Nc2ccc3[nH]cnc3c2)c2nnnn2CC2CCCO2)cc1 (stereo not drawn)        5.24
 5  CC(Cc1ccc2c(c1)OCO2)C(Nc1ccc2[nH]cnc2c1)c1nnnn1CC1CCCO1 (stereo not drawn)        5.12
 6  Cc1ccc2c(C(NCCCn3ccnc3)c3nnnn3C[C@@H]3CCCO3)c[nH]c2c1 (stereo partly drawn)        5.12
 7  CC(C)(C)n1nnnc1C(NCCCn1ccnc1)c1ccc2cccc(O)c2n1 (stereo not drawn)        6.40
 8  CCCCn1nnnc1C(NCCCn1ccnc1)c1ccc2ccccc2n1 (stereo not drawn)        5.51
 9  COc1ccc(C(Nc2ccc3[nH]cnc3c2)c2nnnn2C2CCCCC2)cc1 (stereo not drawn)        5.66
10  Cc1ccc(O)c(C(NCCCn2ccnc2)c2nnnn2C(C)(C)C)c1 (stereo not drawn)        5.89
11  CC(C)(C)Cn1nnnc1C(NCCCn1ccnc1)c1ccc2ccccc2n1 (stereo not drawn)        5.51
12  CC(C)(C)OC(=O)Cn1nnnc1C(Nc1ccc2[nH]cnc2c1)c1ccc(Br)cc1 (stereo not drawn)        5.89
13  COc1ncc(C(NCCCn2ccnc2)c2nnnn2C(C)(C)C)c(OC)n1 (stereo not drawn)        5.07
14  CCCOc1cccc(C(Nc2ccc3[nH]cnc3c2)c2nnnn2Cc2cccnc2)c1 (stereo not drawn)        5.66
15  CC(C)(C)n1nnnc1C(NCCCn1ccnc1)[C@@H]1CCC=CO1 (stereo in doubt)        5.17
16  COc1cc(C)c(C(Nc2ccc3[nH]cnc3c2)c2nnnn2C(C)(C)C)cc1C (stereo not drawn)        5.07
17  COCCCn1nnnc1C(NCCCn1ccnc1)c1ccc2ccccc2n1 (stereo not drawn)        5.51
18  C/C=C/C=C/C(Nc1ccc2[nH]cnc2c1)c1nnnn1CC1COC(C)(C)O1 (stereo not drawn)        5.31
19  COC(=O)Cn1nnnc1C(NCCCn1ccnc1)c1ccc2ccccc2n1 (stereo not drawn)        5.66
20  CCc1ccc(C(Nc2ccc3[nH]cnc3c2)c2nnnn2Cc2cccnc2)cc1 (stereo not drawn)        5.40
21  CCCCn1nnnc1C(NCCCn1ccnc1)c1cc(C)ccc1O (stereo not drawn)        5.66
22  CC(C)(C)Cn1nnnc1C(NCCCn1ccnc1)[C@@H]1CCC=CO1 (stereo partly drawn)        5.17
23  Cc1ccc(C(C)CC(Nc2ccc3[nH]cnc3c2)c2nnnn2C2CCCCC2)o1 (stereo not drawn)        5.31
24  C=CCn1nnnc1C(NCCCn1ccnc1)c1ccc2cccc(O)c2n1 (stereo not drawn)        5.40
25  COCCCn1nnnc1C(NCCCn1ccnc1)c1cc(O)ccc1C (stereo not drawn)        5.40
26  Cn1nnnc1C(NCCCn1ccnc1)c1ccc2ccccc2n1 (stereo not drawn)        5.31
27  COc1ccc(C(Nc2ccc3[nH]cnc3c2)c2nnnn2Cc2ccc(Cl)cc2)c(C)c1 (stereo not drawn)        5.66
28  COCCn1nnnc1C(NCCCn1ccnc1)c1cc(C)ccc1O (stereo not drawn)        5.07
29  c1cn(CCCNC(c2ccc3[nH]ccc3c2)c2nnnn2C[C@@H]2CCCO2)cn1 (stereo partly drawn)        5.17
30  C1=COC(C(NCCCn2ccnc2)c2nnnn2C2CCCC2)CC1 (stereo not drawn)        6.40
31  CCCCn1nnnc1C(NCCCn1ccnc1)c1cc2ccccc2o1 (stereo not drawn)        5.03
32  CCCC(Nc1ccc2[nH]cnc2c1)c1nnnn1Cc1ccccc1 (stereo not drawn)        5.24
33  Clc1ccc(Cn2nnnc2[C@H](NCCCn2ccnc2)C2CCC=CO2)cc1 (stereo partly drawn)        5.31
34  CCOC(=O)C1CCCCC1n1nnnc1C(Nc1ccc2[nH]cnc2c1)c1ccc(Cl)c(F)c1 (stereo not drawn)        5.17
35  COCCn1nnnc1C(NCCCn1ccnc1)c1ccc2[nH]ccc2c1 (stereo not drawn)        5.31
